System: KG-1 cells
experiment_description: Antiproliferative activity against KG-1 cells (CCK8)
Format: cell-based
conditions_used: Homo sapiens, 72 h incubation, CCK8 method
experimental_readout: IC50

# example entries with known answers
{"molecule": "O=C1CCC(n2ncc3cc(CNC(=O)C4=Cc5cc(OC(F)(F)F)ccc5OC4)ccc3c2=O)C(=O)N1 (stereo not shown) [Compound T-10]", "experimental_target": "KG-1 cells", "IC50": "≤ 0.03 µM"}
{"molecule": "C=Cc1ccc2c(c1)C=C(C(=O)NCc1ccc3c(=O)n(C4CCC(=O)NC4=O)ncc3c1)CO2 (stereo not shown) [Compound T-16]", "experimental_target": "KG-1 cells", "IC50": "> 0.3 µM"}
{"molecule": "COc1cccc2c1OCC(C(=O)NCc1ccc3c(=O)n(C4CCC(=O)NC4=O)ncc3c1)=C2 (stereo not shown) [Compound T-6]", "experimental_target": "KG-1 cells", "IC50": "0.03 to 0.3 µM"}

Go through the items and report each one's IC50.
1. O=C1CCC(n2ncc3cc(NC(=O)C4=Cc5cccc(OC(F)(F)F)c5OC4)ccc3c2=O)C(=O)N1 (stereo not shown) [Compound T-28]
2. O=C1CCC(n2ncc3cc(CNC(=O)C4COc5ccc(F)cc5C4)ccc3c2=O)C(=O)N1 (stereo not shown) [Compound T-22]
3. O=C1CCC(n2ncc3cc(CNC(=O)C4=Cc5cccc(F)c5OC4)ccc3c2=O)C(=O)N1 (stereo not shown) [Compound T-5]
4. O=C1CCC(n2ncc3cc(NC(=O)C4=Cc5ccccc5OC4)ccc3c2=O)C(=O)N1 (stereo not shown) [Compound T-25]

0.03 to 0.3 µM
≤ 0.03 µM
≤ 0.03 µM
0.03 to 0.3 µM

###

experimental_target: GSPT1 protein (Homo sapiens, UniProt P15170+Q96SW2)
Construct: Whole cell lysates were prepared; endogenous in cells; host or cells: KG-1 cells
Sequence (P15170 whole entry): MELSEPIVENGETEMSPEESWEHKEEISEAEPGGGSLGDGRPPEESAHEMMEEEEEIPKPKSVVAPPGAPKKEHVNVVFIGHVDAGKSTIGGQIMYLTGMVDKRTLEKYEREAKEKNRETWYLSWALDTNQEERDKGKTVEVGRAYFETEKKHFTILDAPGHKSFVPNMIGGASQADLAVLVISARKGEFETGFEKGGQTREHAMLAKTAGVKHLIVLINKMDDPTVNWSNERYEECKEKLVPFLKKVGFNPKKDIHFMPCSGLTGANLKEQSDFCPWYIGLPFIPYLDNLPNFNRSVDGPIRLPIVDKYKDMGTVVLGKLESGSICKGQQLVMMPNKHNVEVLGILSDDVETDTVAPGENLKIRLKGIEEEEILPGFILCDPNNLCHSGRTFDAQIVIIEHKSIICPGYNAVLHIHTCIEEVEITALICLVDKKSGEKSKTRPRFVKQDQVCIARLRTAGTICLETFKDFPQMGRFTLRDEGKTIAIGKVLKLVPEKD
Sequence (Q96SW2 whole entry): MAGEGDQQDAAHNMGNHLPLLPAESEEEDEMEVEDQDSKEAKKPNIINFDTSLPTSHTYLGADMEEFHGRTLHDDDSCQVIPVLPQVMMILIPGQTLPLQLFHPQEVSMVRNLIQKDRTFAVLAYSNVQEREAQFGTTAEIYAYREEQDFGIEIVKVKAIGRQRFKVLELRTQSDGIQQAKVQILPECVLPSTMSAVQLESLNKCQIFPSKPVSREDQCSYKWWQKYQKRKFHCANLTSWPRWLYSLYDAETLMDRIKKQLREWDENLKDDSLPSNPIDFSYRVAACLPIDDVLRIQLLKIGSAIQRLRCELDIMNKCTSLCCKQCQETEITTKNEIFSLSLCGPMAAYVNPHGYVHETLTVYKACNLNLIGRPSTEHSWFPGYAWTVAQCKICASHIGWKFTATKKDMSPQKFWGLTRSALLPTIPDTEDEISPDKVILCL
Sequence (Q16531 whole entry partner): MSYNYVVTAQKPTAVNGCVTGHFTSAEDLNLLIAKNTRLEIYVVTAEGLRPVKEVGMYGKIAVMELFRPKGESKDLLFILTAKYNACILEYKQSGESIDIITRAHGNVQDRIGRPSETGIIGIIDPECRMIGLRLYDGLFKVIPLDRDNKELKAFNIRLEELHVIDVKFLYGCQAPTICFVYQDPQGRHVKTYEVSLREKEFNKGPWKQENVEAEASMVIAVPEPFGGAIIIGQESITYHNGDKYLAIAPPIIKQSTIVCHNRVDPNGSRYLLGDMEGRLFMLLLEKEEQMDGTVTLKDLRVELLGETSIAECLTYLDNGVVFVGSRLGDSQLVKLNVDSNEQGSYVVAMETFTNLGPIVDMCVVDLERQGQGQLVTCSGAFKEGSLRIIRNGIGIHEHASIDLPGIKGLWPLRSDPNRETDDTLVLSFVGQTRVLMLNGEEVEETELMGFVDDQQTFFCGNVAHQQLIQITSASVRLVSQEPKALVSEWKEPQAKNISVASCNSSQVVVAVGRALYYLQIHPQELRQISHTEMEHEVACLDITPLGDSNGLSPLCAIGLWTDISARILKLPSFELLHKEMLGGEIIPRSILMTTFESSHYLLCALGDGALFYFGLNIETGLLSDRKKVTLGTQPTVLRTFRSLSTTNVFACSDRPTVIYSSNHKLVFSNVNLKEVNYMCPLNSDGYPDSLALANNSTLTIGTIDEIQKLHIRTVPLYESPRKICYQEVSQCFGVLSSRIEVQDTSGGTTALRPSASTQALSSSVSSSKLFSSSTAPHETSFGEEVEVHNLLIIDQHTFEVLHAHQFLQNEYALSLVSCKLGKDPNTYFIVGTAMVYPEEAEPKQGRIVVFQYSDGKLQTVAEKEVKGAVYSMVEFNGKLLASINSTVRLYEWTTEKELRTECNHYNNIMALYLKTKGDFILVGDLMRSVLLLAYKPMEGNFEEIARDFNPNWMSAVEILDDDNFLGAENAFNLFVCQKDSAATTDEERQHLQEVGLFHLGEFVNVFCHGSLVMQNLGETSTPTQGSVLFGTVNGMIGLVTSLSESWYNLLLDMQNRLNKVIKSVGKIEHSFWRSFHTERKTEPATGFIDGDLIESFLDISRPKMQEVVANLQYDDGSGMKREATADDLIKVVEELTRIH
experiment_description: Degradation of GSPT1 in KG-1 cells (Western blot)
Format: cell-based
conditions_used: compound concentration 200 nM, 4 h incubation
Consider the following compounds; for each one, report its inhibition at 0.2 µM.

{"compound": "O=C1CCC(n2ncc3cc(CNC(=O)C4=Cc5cc(-c6ccccc6)ccc5OC4)ccc3c2=O)C(=O)N1 (centres unmarked) [Compound T-18]", "experimental_target": "GSPT1 protein (Homo sapiens, UniProt P15170+Q96SW2)", "inhibition at 0.2 µM": "≥ 70%"}
{"compound": "O=C1CCC(n2ncc3cc(CNC(=O)C4COc5ccc(OC(F)(F)F)cc5C4)ccc3c2=O)C(=O)N1 (centres unmarked) [Compound T-23]", "experimental_target": "GSPT1 protein (Homo sapiens, UniProt P15170+Q96SW2)", "inhibition at 0.2 µM": "≥ 70%"}
{"compound": "O=C1CCC(n2ncc3cc(CNC(=O)C4COc5ccccc5C4)ccc3c2=O)C(=O)N1 (centres unmarked) [Compound T-21]", "experimental_target": "GSPT1 protein (Homo sapiens, UniProt P15170+Q96SW2)", "inhibition at 0.2 µM": "30 to 70%"}
{"compound": "O=C1CCC(n2ncc3cc(CNC(=O)C4=Cc5ccccc5OC4)ccc3c2=O)C(=O)N1 (centres unmarked) [Compound T-1]", "experimental_target": "GSPT1 protein (Homo sapiens, UniProt P15170+Q96SW2)", "inhibition at 0.2 µM": "30 to 70%"}
{"compound": "C=Cc1ccc2c(c1)C=C(C(=O)NCc1ccc3c(=O)n(C4CCC(=O)NC4=O)ncc3c1)CO2 (centres unmarked) [Compound T-16]", "experimental_target": "GSPT1 protein (Homo sapiens, UniProt P15170+Q96SW2)", "inhibition at 0.2 µM": "< 30%"}
{"compound": "O=C1CCC(n2ncc3cc(CNC(=O)C4=Cc5cc(F)ccc5OC4)ccc3c2=O)C(=O)N1 (centres unmarked) [Compound T-3]", "experimental_target": "GSPT1 protein (Homo sapiens, UniProt P15170+Q96SW2)", "inhibition at 0.2 µM": "30 to 70%"}

// each listed compound needs a value for inhibition at 0.2 µM
1. CC(C)(C)c1ccc2c(c1)C=C(C(=O)NCc1ccc3c(=O)n(C4CCC(=O)NC4=O)ncc3c1)CO2 (centres unmarked) [Compound T-17]
2. Cc1ccc2c(c1)C=C(C(=O)NCc1ccc3c(=O)n(C4CCC(=O)NC4=O)ncc3c1)CO2 (centres unmarked) [Compound T-12]

["≥ 70%", "30 to 70%"]
